Please respond with reported Residual signal at 1 mM concentration for every item in the list.
# Target Or System: GST-YTHDF2 (Homo sapiens, UniProt Q9Y5A9)
# Construct: made in house
# Sequence (Q9Y5A9 1-579): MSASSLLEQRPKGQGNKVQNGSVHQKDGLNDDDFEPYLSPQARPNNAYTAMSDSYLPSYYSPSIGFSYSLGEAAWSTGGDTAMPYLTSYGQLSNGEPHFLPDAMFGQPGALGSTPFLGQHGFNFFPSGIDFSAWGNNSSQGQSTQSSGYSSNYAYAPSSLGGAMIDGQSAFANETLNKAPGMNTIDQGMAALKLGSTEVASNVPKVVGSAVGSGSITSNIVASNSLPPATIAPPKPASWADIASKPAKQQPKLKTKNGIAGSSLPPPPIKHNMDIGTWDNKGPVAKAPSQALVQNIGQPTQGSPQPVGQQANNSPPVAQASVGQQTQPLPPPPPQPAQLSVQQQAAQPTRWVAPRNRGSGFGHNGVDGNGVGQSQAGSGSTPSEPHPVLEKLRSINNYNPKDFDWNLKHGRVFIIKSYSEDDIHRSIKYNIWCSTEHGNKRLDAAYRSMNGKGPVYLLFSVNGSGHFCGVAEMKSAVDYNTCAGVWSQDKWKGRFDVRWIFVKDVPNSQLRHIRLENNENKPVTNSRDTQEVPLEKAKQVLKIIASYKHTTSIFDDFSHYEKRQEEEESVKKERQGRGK
# Assay Details: HTRF-based binding assay, competition with m6A-oligoRNA, DF2
# Test Context: HTRF, 1 mM compound, relative to control; average of two technical replicates; * = interference with the assay
Report the value in % with no unit label.

Per the records, this molecule ( Cc1cc(O)nc(NC=C2C(=O)NC(=S)NC2=O)n1 ) has Residual signal at 1 mM concentration equal to 9

Per the records, this molecule ( O=c1[nH]c(=S)[nH]c2scc(-c3cccs3)c12 ) has Residual signal at 1 mM concentration equal to 49

Per the records, this molecule ( O=c1[nH]c(=S)[nH]c2[nH]ccc12 ) has Residual signal at 1 mM concentration equal to 28

Per the records, this molecule ( O=c1[nH]c(=S)[nH]c2sc3c(c12)CCC3 ) has Residual signal at 1 mM concentration equal to 35

Per the records, this molecule ( CC=CC=C1C(=O)NC(=S)NC1=O ) has Residual signal at 1 mM concentration equal to 26

Per the records, this molecule ( CN(C)c1ccc(C=C2C(=O)NC(=S)NC2=O)o1 ) has Residual signal at 1 mM concentration equal to 35

Per the records, this molecule ( Cc1n[nH]c(=S)[nH]c1=O ) has Residual signal at 1 mM concentration equal to 38

Per the records, this molecule ( CC=CC=C1C(=O)NC(=O)NC1=O ) has Residual signal at 1 mM concentration equal to 30

Per the records, this molecule ( Nn1c(=S)[nH]c2scc(-c3ccccc3)c2c1=O ) has Residual signal at 1 mM concentration equal to 36

Per the records, this molecule ( CCOc1ccc(C=C2C(=O)NC(=S)NC2=O)cc1Cl ) has Residual signal at 1 mM concentration equal to 12

Per the records, this molecule ( CN1C(=O)CC(=O)NC1=S ) has Residual signal at 1 mM concentration equal to 75

Per the records, this molecule ( CCNc1cc(=O)[nH]c(=O)[nH]1 ) has Residual signal at 1 mM concentration equal to 51

Per the records, this molecule ( C=CCc1cccc(C=Nc2c[nH]c(=O)[nH]c2=O)c1O ) has Residual signal at 1 mM concentration equal to 79

Per the records, this molecule ( Cn1cccc1C=C1C(=O)NC(=S)NC1=O ) has Residual signal at 1 mM concentration equal to 13

Per the records, this molecule ( COc1cccc2c1OCc1sc3[nH]c(=S)[nH]c(=O)c3c1-2 ) has Residual signal at 1 mM concentration equal to 64

Per the records, this molecule ( O=c1[nH]c(=S)[nH]c2n[nH]cc12 ) has Residual signal at 1 mM concentration equal to 17

Per the records, this molecule ( CC1(C)C(=O)NC(=S)NC1=O ) has Residual signal at 1 mM concentration equal to 11

Per the records, this molecule ( Cc1[nH]nc2ncnc(N)c12 ) has Residual signal at 1 mM concentration equal to 80

Per the records, this molecule ( CC(=O)N=c1[nH]nc(SCC(=O)NC2CCCCC2)s1 ) has Residual signal at 1 mM concentration equal to 50

Per the records, this molecule ( Cc1ccccc1NN=C1C(=O)NC(=S)NC1=O ) has Residual signal at 1 mM concentration equal to 12

Per the records, this molecule ( CN(C)c1cc(=O)[nH]c(=O)[nH]1 ) has Residual signal at 1 mM concentration equal to 85

Per the records, this molecule ( CCSc1nnc(NC(C)=O)s1 ) has Residual signal at 1 mM concentration equal to 60

Per the records, this molecule ( O=c1cn[nH]c(=S)[nH]1 ) has Residual signal at 1 mM concentration equal to 5

Per the records, this molecule ( CNc1cc(=O)[nH]c(=O)[nH]1 ) has Residual signal at 1 mM concentration equal to 18

Per the records, this molecule ( O=c1[nH]c(=O)c2cn[nH]c2[nH]1 ) has Residual signal at 1 mM concentration equal to 47

Per the records, this molecule ( Nn1c(=S)[nH]c2sccc2c1=O ) has Residual signal at 1 mM concentration equal to 23

Per the records, this molecule ( Cc1cc(=O)c(OCc2ccc(F)cc2)c[nH]1 ) has Residual signal at 1 mM concentration equal to 31

Per the records, this molecule ( CN(NC=C1C(=O)NC(=S)NC1=O)c1ccccc1 ) has Residual signal at 1 mM concentration equal to 54

Per the records, this molecule ( CNc1ncccc1C(N)=O ) has Residual signal at 1 mM concentration equal to 88

Attribution: paper PMC12371494
